assay_comment: in vitro
measurement_conditions: CD-1, mouse, liver microsomes
reported_endpoint: hepatic extraction ratio at 0.5 h, […]
// keep it numeric: no unit symbol after the value

## Input Item C[C@]12CC[C@H]3[C@@H](CCC4=CC(=O)CC[C@@]43C)[C@@H]1CC[C@@H]2O [TESTOSTERONE] : provide hepatic extraction ratio at 0.5 h, […]
## Output 0.968

---

Attribute: fraction unbound at 4 h, up to 5 µM
assay_comment: Plasma protein binding in human at 1 to 5 uM after 4 hrs by LC/MS/MS analysis
Type: ADME, cell-free
measurement_conditions: read-out: PPB

Reference set (2 entries):
COc1ccc(NC(=O)[C@H](C)Nc2nc3c(cnn3-c3ccccc3Cl)c(=O)[nH]2)cc1 | < 0.057
COc1ccc(NC(=O)[C@H](C)Nc2nc3c(cnn3C3CCCC3)c(=O)[nH]2)cc1 | < 0.057

Turning now to a further compound:
## Input Item COc1ccc(NC(=O)[C@@H](C)Nc2nc3c(cnn3C3CCCC3)c(=O)[nH]2)cc1 : provide fraction unbound at 4 h, up to 5 µM
## Output < 0.057

# credit: ChEMBL document CHEMBL3351564
